Test system: HEL cells
Details: read-out: CC50 (HEL); HEL cells; anti-VZV table
Quick reference for CC50 among some compounds
Answer format: numeric, µM implied, no suffix.

(Q) I have this compound here, CCCCc1ccc(CN2CCN(C(=O)C3NC(=O)C4NC(=O)C(NC(=O)C5NC(=O)C6NC(=O)C(Cc7ccc(c(Cl)c7)Oc7cc5cc(c7O)Oc5ccc(cc5Cl)C4O)NC(=O)C(N)c4ccc(O)c(c4)Oc4cc(O)cc6c4)c4ccc(O)c(c4)-c4c(O)cc(O)cc43)CC2)cc1 (stereo not shown) [Compound 124] , and I need its recorded CC50.
(A) 71

(Q) GET /values?readout=CC50&item= CCCCCCCCCC[N+](C)(C)CCCNCc1c(O)cc2c(c1O)-c1cc(ccc1O)C1NC(=O)C3NC(=O)C4NC(=O)C(Cc5ccc(c(Cl)c5)Oc5cc3cc(c5O)Oc3ccc(cc3Cl)C(O)C(NC1=O)C(=O)NC2C(=O)NCCC[N+](C)(C)CCCCCCCCCC)NC(=O)C(N)c1ccc(O)c(c1)Oc1cc(O)cc4c1 (stereo not shown) [Compound 37]
(A) 43

###

System: FCK cells
Details: read-out: CC50 FCK; FCK cells
measurement kind: CC50

// solved cases for CC50 follow
>  <compound>
CNC(=O)C1NC(=O)C2NC(=O)C(NC(=O)C3NC(=O)C4NC(=O)C(Cc5ccc(c(Cl)c5)Oc5cc3cc(c5O)Oc3ccc(cc3Cl)C2O)NC(=O)C(N)c2ccc(O)c(c2)Oc2cc(O)cc4c2)c2ccc(O)c(c2)-c2c1cc(O)c(CNC1C3CC4CC(C3)CC1C4)c2O (stereo not shown)

>  <CC50>
≥ 100 µM

$$$$
>  <compound>
NC1C(=O)NC2Cc3ccc(c(Cl)c3)Oc3cc4cc(c3O)Oc3ccc(cc3Cl)C(O)C3NC(=O)C(NC(=O)C4NC(=O)C(NC2=O)c2cc(O)cc(c2)Oc2cc1ccc2O)c1ccc(O)c(c1)-c1c(O)cc(O)cc1C(C(=O)NCC12CC4CC(CC(C4)C1)C2)NC3=O (stereo not shown)

>  <CC50>
49 µM

$$$$
>  <compound>
CNC(CC(C)C)C(=O)NC1C(=O)NC(CC(N)=O)C(=O)NC2C(=O)NC3C(=O)NC(C(=O)NC(C(=O)N4CCC5CCCCC5C4)c4cc(O)cc(O)c4-c4cc3ccc4O)C(O)c3ccc(cc3)Oc3cc2cc(c3O)Oc2ccc(cc2Cl)C1O (stereo not shown)

>  <CC50>
> 100 µM

$$$$

Here's the next entry for you.
(Q) Name the reported CC50 value associated with the compound NC1C(=O)NC2Cc3ccc(c(Cl)c3)Oc3cc4cc(c3O)Oc3ccc(cc3Cl)C(O)C3NC(=O)C(NC(=O)C4NC(=O)C(NC2=O)c2cc(O)cc(c2)Oc2cc1ccc2O)c1ccc(O)c(c1)-c1c(O)cc(O)cc1C(C(=O)NC1CC2CCC1C2)NC3=O (stereo not shown)
(A) ≥ 100 µM

###

Assay: in vitro
Conditions: human
measurement kind: CC50 (µM)
Write down the numeric answer in µM and omit the unit.

(Q) Which CC50 value is on record for COC(=O)C1NC(=O)C2NC(=O)C(NC(=O)C(N)c3cc(Oc4ccc(CC(NC(=O)OCc5ccccc5)C(=O)O)cc4Cl)c(O)c(c3)Oc3ccc(cc3Cl)C2O)c2ccc(O)c(c2)-c2c(O)cc(O)cc21 (stereo not shown) [Compound 169] ?
(A) 50
